Recorded IC50 for the following molecules
# systemUnderTest: β5c of hu c-20S (Homo sapiens (Human), UniProt P20618+P28074)
# experimentalProtocol: IC50 determination against β5c of human constitutive proteasome (suc-LLVY-AMC hydrolysis);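 note: IC50 obtained by fitting initial reaction velocities to a dose-dependent inhibition model, with SDS present as proteasome activator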
# Assay type: biochemical
# experimentalSetup: 0.2 nM c-20S, 25 μM suc-LLVY-AMC

{"molecule": "O=C1CCc2cccc(c2)OCCCC[C@@H](C(=O)NC2CCCC2)NC(=O)[C@H](CCN2CCOCC2)N1", "systemUnderTest": "β5c of hu c-20S (Homo sapiens (Human), UniProt P20618+P28074)", "measuredValue": "24.1 µM"}

So what does the record say about IC50 for `COC(=O)N[C@H]1Cc2cccc(c2)Oc2cccc(c2)C[C@@H](C(=O)NCC2CC2)NC(=O)[C@H](CCc2ccccc2)NC1=O` ?
0.542 µM

So what does the record say about IC50 for O=C1CCCCCCCCCC[C@@H](C(=O)NCc2ccccc2F)NC(=O)[C@H](CC(=O)N2CCCC2C2COC2)N1 (stereo partly drawn) ?
0.88 µM

So what does the record say about IC50 for `O=C(NCc1ncco1)[C@@H]1CCCCOc2cccc(c2)C[C@H](N2CCCC2=O)C(=O)N[C@@H](CCc2ccccc2)C(=O)N1` ?
31.9 µM

From: patent US20240043470A1
